Quick reference for total motile sperm among some compounds
Tested on: human spermatozoa
procedure.text: total motile sperm, percent change vs DMSO (non-capacitating); higher = more of the measured sperm population than DMSO, for viability, fewer PI-positive (dead) cells than DMSO
test.parameters: incubation time: 10min incubation, 9.99 µM

- compound: "CCCCCCCCCCCCCCCCOCC(COCC(F)(F)F)OP(=O)([O-])OC (stereo not given)"
  total motile sperm / %: 2.25
- compound: "[O-][S+](c1ccccc1)c1ccc2nnnn2n1 (stereo not given)"
  total motile sperm / %: -8.15
- compound: "Oc1c(Cl)cc(Cl)cc1Sc1cc(Cl)cc(Cl)c1O"
  total motile sperm / %: 3.44
- compound: "COc1cn(-c2ccc(-n3cccn3)cc2F)nc(-c2ccnn2-c2ccccc2)c1=O"
  total motile sperm / %: -3.81
- compound: "O=c1sn(-c2cccc3ccccc23)c(=O)n1Cc1ccccc1"
  total motile sperm / %: 2.52

====

System: HeLa
procedure.text: HeLa toxicity: nuclei-count effect normalised to DMSO (DMSO = 0); higher = more features changed / larger toxic effect
test.parameters: incubation time: 24h incubation; 9.99 µM
metric: HeLa toxicity: nuclei-count effect normalised (%)

- compound: "CC(C)(O)c1ccn2c(-c3ccc(F)c(-c4ccc(F)cc4C#N)c3)cnc2c1F"
  measured.value: 15.4
- compound: "CCCCCCCCOc1ccc(-c2noc([C@@H]3CCCN3C(=N)N)n2)cc1C(F)(F)F"
  measured.value: 35.1
- compound: "Cc1ccc(S(=O)(=O)c2c(N)n(CC(O)c3ccc([N+](=O)[O-])cc3)c3nc4ccccc4nc23)cc1 (centres undefined)"
  measured.value: 9.49
- compound: "CCc1cc(Nc2nccc(-c3c(-c4ccc(OC)c(C(=O)Nc5c(F)cccc5F)c4)nc4ccccn34)n2)c(OC)cc1N1CCC(N2CCN(S(C)(=O)=O)CC2)CC1"
  measured.value: 4.68

====

Tested on: human spermatozoa
procedure.text: change in acrosome-reacted (PNA+) sperm vs DMSO, no agonist (capacitating); higher = more of the measured sperm population than DMSO, for viability, fewer PI-positive (dead) cells than DMSO
test.parameters: incubation time: 3h, 9.99 µM
Where a name gives a salt, the structure may show the parent alone.
metric: change in acrosome-reacted (%)

- compound: "COc1cc2ncn(-c3cc(OCc4ccccc4C(F)(F)F)c(C(N)=O)s3)c2cc1OC"
  metric: "change in acrosome-reacted"
  measured.value: 0.45
- compound: "CCc1cc(Nc2nccc(-c3c(-c4ccc(OC)c(C(=O)Nc5c(F)cccc5F)c4)nc4ccccn34)n2)c(OC)cc1N1CCC(N2CCN(S(C)(=O)=O)CC2)CC1"
  metric: "change in acrosome-reacted"
  measured.value: 0.271
- compound: "O=C(O)c1ccc(/C=C2/SC(=S)N(c3cccc(C(F)(F)F)c3)C2=O)cc1 [CTFRinh-172]"
  metric: "change in acrosome-reacted"
  measured.value: 0.257
- compound: "O=C(c1cccs1)c1no[n+]([O-])c1C(=O)c1cccs1"
  metric: "change in acrosome-reacted"
  measured.value: 1.47
- compound: "Nc1ccc(-c2ccc3ncc4ccc(=O)n(-c5cccc(C(F)(F)F)c5)c4c3c2)cn1 [Torin 2]"
  metric: "change in acrosome-reacted"
  measured.value: 1.71
- compound: "COCC(=O)O[C@]1(CCN(C)CCCc2nc3ccccc3[nH]2)CCc2cc(F)ccc2[C@@H]1C(C)C [Mibefradil]"
  metric: "change in acrosome-reacted"
  measured.value: 0.323
- compound: "[O]=[V]([O-])([O-])[O-] [Sodium orthovanadate]"
  metric: "change in acrosome-reacted"
  measured.value: 0.239
- compound: "COC(=O)[C@]1(C)CC[C@]2(C)CC[C@]3(C)C4=CC=C5C(=CC(=O)C(O)=C5C)[C@]4(C)CC[C@@]3(C)[C@@H]2C1 [Pristimerin]"
  metric: "change in acrosome-reacted"
  measured.value: 3.63
- compound: "CCN(CC)C(=S)SSC(=S)N(CC)CC [Disulfiram]"
  metric: "change in acrosome-reacted"
  measured.value: 16.4
- compound: "CCCCCCOC(=O)[C@]1(O)C[C@@H]2O[C@@]1(C)n1c3ccccc3c3c4c(c5c6ccccc6n2c5c31)C(=O)NC4 [KT 5720]"
  metric: "change in acrosome-reacted"
  measured.value: 1.66
- compound: "Cc1cc2c(C(C)C)c(O)c(O)c(C=O)c2c(O)c1-c1c(C)cc2c(C(C)C)c(O)c(O)c(C=O)c2c1O [Gossypol]"
  metric: "change in acrosome-reacted"
  measured.value: 1.41
- compound: "N=C(N)Nc1ccc(C(=O)Oc2ccc3cc(C(=N)N)ccc3c2)cc1 [Nafamostat]"
  metric: "change in acrosome-reacted"
  measured.value: 0.86
- compound: "COc1cc2c(cc1OC)-c1c/c(=N\\c3c(C)cc(C)cc3C)n(C)c(=O)n1CC2 [Trequinsin hydrochloride]"
  metric: "change in acrosome-reacted"
  measured.value: 1.55
- compound: "[O-][S+](c1ccccc1)c1ccc2nnnn2n1 (stereo not given) [Ro 106-9920]"
  metric: "change in acrosome-reacted"
  measured.value: 8.05
- compound: "O=S(=O)(NCCNC/C=C/c1ccc(Br)cc1)c1cccc2cnccc12 [H 89 dihydrochloride]"
  metric: "change in acrosome-reacted"
  measured.value: 0.62
